target: Artificial Cell Surface (ACS): biotinylated cell surface proteins of PBMCs bound to streptavidin columns; test: Asp-N-digested dHSA adsorbed on ACS column, MALDI-TOF ms
observed property: Percent Absorbed (%)
Respond with the bare value in %.

> print(dat)
                                     binder  assay.value
1  DETYVPKEFNAETFTHA [Asp-N-generated albumin fragment 518-535]           86
2  VFLGMFLYEYARRHPDYSVVLLLRLAKTYETTLEKCCAAA [Asp-N-generated albumin fragment 348-388]          100
3  KLCTVATLRETYGEMADCCAKQEPERNECFLQHK [Asp-N-generated albumin fragment 96-130]          100
4  RVTKCCTESLVNRRPCFSALEVDETYVPKEFNAETFTFHA [Asp-N-generated albumin fragment 495-535]          100
5  LGEENFKALVLIAFAQYLQQCPFEDHVKLVNEVTEFAKTCVA [Asp-N-generated albumin fragment 37-79]          100

Query (binder): YLSVVLNQLCVLHEKTPVSDRVTKCCCTESLVNRRPFSALEV [Asp-N-generated albumin fragment 475-517] ; field requested: Percent Absorbed
37

Query (binder): ICTLSEKERQIKKQTALVELVKHKPKATKEQLKAVM [Asp-N-generated albumin fragment 536-572] ; field requested: Percent Absorbed
100
